Hey, just so you know, these numbers are from patent US20260242478A1.

Collected phage binding ELISA signal values appear next to each entry.
- assayed target: T1, 006 PSMA Fab (biotinylated (site not stated))
- T1 construct: Biotinylated PSMA Fab captured on neutravidin coated plates in the clonal phage ELISA; also called Anti-PSMA Fab; anti-PSMA Fab
- assay explanation: clonal phage ELISA, biotinylated PSMA Fab on neutravidin plate, anti-M13 HRP detection, no PSMA antigen
Where no end group is shown, it is not given here.
measurement type: phage binding ELISA signal

1. LELACKPEWMCVGF (cysteine pairing not given here; also: fused to phage pIII, orientation and linker not given here) [Phage-3128] : 2.06
2. LDKRCVPVWMCEGF (cysteine pairing not given here; also: fused to phage pIII, orientation and linker not given here) [Phage-3127] : 2.06
